So I've got a bunch of compounds here, and I need their solubility kinetic values.
conditions: buffer; pH 7.4; 200.0 µM
Answers are plain numbers, in µg/mL.

The following compounds have reported results that may help.
> print(dat)
                                   compound  value.observed
1            O=[N+]([O-])c1ccccc1CSc1ccccn1            13.7
2  COc1ccc(CCN2C(=NC(=O)C(C)C)SC3CS(=O)(=O)CC32)cc1 (stereo not given)             6.6
3      COc1ccc(OCC(=O)Nc2ccc3nc(C)sc3c2)cc1            15.8
4          ON(Cc1c(F)cccc1Cl)Cc1c(F)cccc1Cl             0.9
5                  Nc1nc(CCOc2ccc(F)cc2)cs1            34.3

Each of the following entries comes with a recorded value; kindly state solubility kinetic for each.
1. CCN1CCc2nc(N)sc2C1
2. Cc1ccc(NC(=O)C(c2ccccc2)c2ccccc2)nc1
3. OCCC1CN(Cc2ccc3c(c2)CCO3)CCN1C1CCCC1 (stereo not given)
4. CC(=O)c1cc(CN2CCN(C(C)C)C(CCO)C2)cs1 (stereo not given)
5. CN(C)c1ccc(/C=C/C(=O)c2cccnc2)cc1
6. O=C(O)c1cccnc1SCC(=O)N1CCCc2ccccc21
7. O=[N+]([O-])c1cccnc1Oc1ccc(F)cc1F
8. Cc1ccc(C(=O)Nc2ccccc2Oc2ccccc2)o1

Result:
1: 25.8; 2: 11.5; 3: 45.2; 4: 35.7; 5: 9.5; 6: 47; 7: 28.3; 8: 12.5

// for each compound in input: emit solubility kinetic
1. CC1(C)NC(=O)N(CC(=O)N2CCC(Cc3ccccc3)CC2)C1=O
2. COc1ccc(OC)c(Nc2cc(C)c3ccccc3n2)c1
3. Cc1ccc(-c2csc(NC(=O)Cc3ccc(F)cc3)n2)o1

Result:
1. 50.1
2. 1.4
3. 12.5

Provide the reported solubility kinetic of each entry below, same order.
1. CNC(=S)N1CCN(CCNC2=CC(=O)CC(C)(C)C2)CC1
2. O=C(COC(=O)Cn1cnc2ccccc2c1=O)Nc1ccccc1OC(F)F
3. CCc1nc2ccc(N3CCN(C)CC3)cc2nc1CC
4. Cc1ccc(S(=O)(=O)N2CCN(C3CC(=O)N(c4ccc(F)cc4)C3=O)CC2)cc1C (stereo not given)
5. O=C(O)C1CCC(CNCc2ccncc2)CC1 (stereo not given)
6. O=C(NC1CCCCCC1)C1CC(=O)N(c2ccc(Cl)cc2)C1 (stereo not given)
7. CCCCCCCC(=O)NC1=NC(=O)C(C)(C)S1

Result:
1. 44.4
2. 15.8
3. 35.2
4. 52.5
5. 36.7
6. 6.3
7. 5

Dear reader, for each entry below, please note its solubility kinetic.
1. COC(=O)c1cc(NC(=O)c2ccc(F)cc2)cc(C(=O)OC)c1
2. COc1ccccc1NC(=O)Nc1cccc(NC(C)=O)c1

Result:
1: 4.9; 2: 34.2
